B1: LINE1-mini (parent)
chain: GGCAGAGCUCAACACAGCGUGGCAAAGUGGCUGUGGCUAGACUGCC

Variants of: B1
Assay: self-cleavage, relative activity (ratio to wild type); higher = more cleavage; in vitro, sequencing; the parent is a self-cleaving ribozyme
Some variants, each annotated with its measured self-cleavage.
measure name: self-cleavage

[[record]]
variant_code = "C18A U34G"
measure_name = "self-cleavage"
reading = 0.04

[[record]]
variant_code = "U28G U43C"
measure_name = "self-cleavage"
reading = 0.08

[[record]]
variant_code = "U34C C42G"
measure_name = "self-cleavage"
reading = 0.05

[[record]]
variant_code = "G1A C13A"
measure_name = "self-cleavage"
reading = 0.13

[[record]]
variant_code = "C13G A39C"
measure_name = "self-cleavage"
reading = 0.16

[[record]]
variant_code = "U34G G36A"
measure_name = "self-cleavage"
reading = 0.07

[[record]]
variant_code = "C3A G44C"
measure_name = "self-cleavage"
reading = 0.86

[[record]]
variant_code = "G2A G5U"
measure_name = "self-cleavage"
reading = 0.27

[[record]]
variant_code = "C3A G22A"
measure_name = "self-cleavage"
reading = 0.52

[[record]]
variant_code = "A11C G36U"
measure_name = "self-cleavage"
reading = 0.01

[[record]]
variant_code = "G36C A39U"
measure_name = "self-cleavage"
reading = 0.23

[[record]]
variant_code = "A39G G44A"
measure_name = "self-cleavage"
reading = 0.16

[[record]]
variant_code = "U9C A12U"
measure_name = "self-cleavage"
reading = 0.03

[[record]]
variant_code = "A11U C46G"
measure_name = "self-cleavage"
reading = 0.06

[[record]]
variant_code = "C23A U28C"
measure_name = "self-cleavage"
reading = 0.88

[[record]]
variant_code = "U9A G33A"
measure_name = "self-cleavage"
reading = 0.11

[[record]]
variant_code = "G30C A39C"
measure_name = "self-cleavage"
reading = 0.26

[[record]]
variant_code = "C13G U38A"
measure_name = "self-cleavage"
reading = 0.05

[[record]]
variant_code = "C3A G30A"
measure_name = "self-cleavage"
reading = 1.1

[[record]]
variant_code = "A26U G44A"
measure_name = "self-cleavage"
reading = 0.64

[[record]]
variant_code = "C15U G33U"
measure_name = "self-cleavage"
reading = 0.37

[[record]]
variant_code = "C3U A11U"
measure_name = "self-cleavage"
reading = 0.08

